Kindly state RUNX1 binding intensity for each of the entries shown.
target: RUNX1 (UniProt Q01196); assay: RUNX1 binding intensity (PBM fluorescence), RUNX1 alone (arbitrary fluorescence units); higher = stronger binding; details: RUNX1 concentration 2 nM; ETS1 concentration 0 nM
Sequence (Q01196 whole entry): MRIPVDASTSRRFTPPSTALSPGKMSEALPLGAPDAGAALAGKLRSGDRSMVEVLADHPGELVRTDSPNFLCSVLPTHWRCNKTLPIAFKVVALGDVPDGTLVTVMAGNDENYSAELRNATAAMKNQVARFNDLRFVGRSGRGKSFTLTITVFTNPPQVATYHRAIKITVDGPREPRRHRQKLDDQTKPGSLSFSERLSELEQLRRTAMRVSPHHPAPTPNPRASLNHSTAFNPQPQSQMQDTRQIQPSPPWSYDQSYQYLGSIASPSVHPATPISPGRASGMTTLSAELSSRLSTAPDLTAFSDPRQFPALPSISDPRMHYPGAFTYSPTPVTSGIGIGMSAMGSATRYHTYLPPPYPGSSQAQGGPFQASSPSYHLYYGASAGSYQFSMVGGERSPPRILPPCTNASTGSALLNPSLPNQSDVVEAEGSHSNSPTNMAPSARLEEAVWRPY
Give bare numbers.

AGCTTGCCGGAAGCTGGTTGTTCGCTGCGGCGACCA : 705

State recorded RUNX1 binding intensity for all listed sequences.
1. ACCAGAACAGGAAATGTTAGTGGTTGAGTTAACGGT
2. GAGGAGATTTCCGGCCCCCATCCCCGCAGCGACCTT
3. AGCTCCACCGGAAACGGCCTGGCCGCAGCCAATCAG
4. AGCTTGCGCAGGAAGTCTGCGGCAGGAGGGCGTCCT
5. CTGCCCACCGGAAACGATGGCGCGAGGCCGCAGAGC
6. AGTAGAGGAGGAAGTTAAATGTGGTTTTCTGGGTGG
7. GACCAATGTAAACAAGGATGTGGGTTCTCCGGCCAC

// result
1. 700
2. 762
3. 806
4. 687
5. 728
6. 857
7. 785

# batch: return RUNX1 binding intensity for each of the 4 sequences below
1. AACTCCTGGCCGGAACGGCACAGACCGCACTCCCGC
2. GGAGGGGAGCAGGAAGCTGAGGTTTTGTGAGTCAGA
3. AGCCTTAATTACCCGGAAGTGCGGTCCCAGGGACTT
4. CAGTTTGCCCCGGATGTTGACCGCCTTGAAGTCGTA

// result
938
753
768
910

Required: RUNX1 binding intensity, one value per sequence below.
1. GCTCCGCTTCCGGGAGGCGGGGCTTCTGCGGGTTCC
2. CAGTTTATCCTGTGAGAGCCTTGTGGTTCCTACTAA
3. AATGCCGGATATTGGTTCTGGTAAGCCACAAAAAAG
4. ACTTTAATAGAGTCCGGATGCGGTTAGGCTGACAGA
5. GTCGGAAGTGGCCGTGAGCCCAAGCCGCGGTCCCGG
6. CCCAATTTCCTTTGCTCTGCTGTCTGCCAACCGCAA
7. TGTGAACTGACAGGATGTGGTACAAGGCTTACAAAG
8. ACGAGGTTGGCCTCATCCGGTGGTTTTCGCAGCACG

// result
1. 737
2. 773
3. 836
4. 2000
5. 678
6. 2740
7. 730
8. 837

Record RUNX1 binding intensity per entry; entries follow.
1. CAGCTCTCTCGCTTCCTGTGGTGTAAACATGAAGCA
2. GAGTGACTGCTAACGGATGTGTGGTTTCTTTAGTTT
3. GCACCCTTCCTGCTTCCCACAGTGTGGTATAAGAGG
4. TTACGACACTTCCGGCGACGCCCCGCAGCCTTCACC
5. CAACCCAAGGGGATGTGCTCACTGCGGTGAGGAGGC

// result
1: 964; 2: 926; 3: 965; 4: 834; 5: 806

* * *

Target: ETS1 (UniProt P14921)
Sequence: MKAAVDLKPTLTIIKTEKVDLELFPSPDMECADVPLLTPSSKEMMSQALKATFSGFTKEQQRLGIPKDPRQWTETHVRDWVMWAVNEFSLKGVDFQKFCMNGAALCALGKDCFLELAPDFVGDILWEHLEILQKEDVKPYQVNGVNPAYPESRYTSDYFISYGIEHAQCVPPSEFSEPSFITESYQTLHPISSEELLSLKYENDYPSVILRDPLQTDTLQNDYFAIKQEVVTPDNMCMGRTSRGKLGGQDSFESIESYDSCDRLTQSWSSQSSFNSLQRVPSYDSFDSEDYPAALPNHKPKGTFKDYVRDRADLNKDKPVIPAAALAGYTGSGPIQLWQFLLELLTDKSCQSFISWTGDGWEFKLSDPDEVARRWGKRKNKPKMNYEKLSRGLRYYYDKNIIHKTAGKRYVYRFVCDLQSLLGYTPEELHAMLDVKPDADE
Assay: ETS1 binding intensity (PBM fluorescence), ETS1 alone (arbitrary fluorescence units); higher = stronger binding
Conditions: ETS1 concentration 1 nM; RUNX1 concentration 0 nM
For each of the sequences below, state its ETS1 binding intensity.
Numbers only.

GGCTTCCGCCTGCCGAGCGGCCCCGGACCGCAGGCC : 343
AAAGCATTTCCTGCCTTGACTTAACCACAAGACAGG : 1880

Can you give me ETS1 binding intensity for all of these, one by one?
1. CGAGCTCGGTGTTCCGCTTTTTGTGGGCCGGGTGGG
2. CCATGCGCTGCTTCCTTCCACTTACCGCCCTCGCAC
3. ATCTTTTGATGAGGATGTGGTTTCCAGGCAGGTGCT
4. CAGCCAGCCAGGAAGCAGGGGCTGCGGGGCTGACAG
5. ATCAAACCCCAGGATATGTTGGTTTTGTAGGTTGTC

// result
1. 467
2. 523
3. 836
4. 691
5. 562

Hey, can you go through the list below and give me ETS1 binding intensity for every item?
1. AGTTTCTCAGCTTCCTGTGTGGTTTTCTTGATCTGC
2. AACAGTACTTCCGGGGCAAGTGAGCGCCCACAAGGC
3. ATGTAAACAAGGATGTGAGTTCTGCGGCCACACTCT
4. AGCACTTCCGTTTGGGCAGGGCTGCGGGCCGGAGGG
5. CACCTGCCTTGCTTCCTGCGGTGCAACCAGCGGGAG

// result
1. 1480
2. 934
3. 448
4. 911
5. 444

* * *

Molecular target: ETS1 (UniProt P14921)
Sequence: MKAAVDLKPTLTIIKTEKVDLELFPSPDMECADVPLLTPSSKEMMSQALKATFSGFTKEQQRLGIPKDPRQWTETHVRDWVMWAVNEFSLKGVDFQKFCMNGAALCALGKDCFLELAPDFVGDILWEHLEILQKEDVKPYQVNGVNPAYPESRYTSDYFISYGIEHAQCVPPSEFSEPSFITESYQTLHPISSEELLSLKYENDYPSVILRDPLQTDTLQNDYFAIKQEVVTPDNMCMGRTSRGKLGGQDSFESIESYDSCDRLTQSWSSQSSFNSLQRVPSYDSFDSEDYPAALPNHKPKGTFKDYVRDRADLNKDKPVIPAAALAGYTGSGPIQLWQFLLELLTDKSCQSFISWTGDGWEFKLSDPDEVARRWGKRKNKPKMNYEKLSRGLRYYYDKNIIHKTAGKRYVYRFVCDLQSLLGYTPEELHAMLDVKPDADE
Test: ETS1 binding intensity (PBM fluorescence) in presence of RUNX1, normalised to ETS1-only experiment (arbitrary fluorescence units); higher = stronger binding
Conditions: ETS1 concentration 1 nM; RUNX1 concentration 25 nM
Provide the recorded ETS1 binding intensity for the entries that follow.
Answers are plain numbers.

// known answers, use as guide
TTTCTGAAACCCTCAGGATGTGGGTTTTCACACTGT : 6900
AGCTTCCTGTTTGGCCTTGCTGATGTCACCGCATTA : 1090
TGTGTAAGAGGAAACACCAAAACCACAAATATGAAA : 3280
GTTGGGGTGCGTGTAGGATGTGGTCTGGGATGATTA : 2610
CAAAGGTTAAATGCAGGATGTGGTTTCTGCAGACTC : 25400
TGTCTCATTTCCTGTAGGTAACAGGCACCACAATAG : 1470
ATGAACCACTTCCTGTGTGTTCCCACAGAGGTCAGG : 4320
GCTAAGGTGAAAGGAAGTGGGTTTTGTCTTTTTTTT : 4150
TGGTGTGACCAGGATGTGAACCGCGGCAAGCTGCCT : 992
GCGGAGCGAGCGGCCGGATGCGGTCACCATAGAGAC : 25200

// for each sequence in input: emit ETS1 binding intensity
1. TGACTCACCTTCCTGTAGGTTGGTTTTCTGCATATC
2. CCCCAGGTTGCTTCCGTTCTGGGAACCGCGTCCTCG
3. CATGTGCTTCCGGCTTGATCTGTGGTTATTCTGGTT
4. TTGGAGGCGGAAACAGGCACCGAAAGCGGTGGAAGT
5. GTGGCGGGGCGGAAGTTCACATGTGTGGTATGTAGA
6. GAAGTCACATCCTGTCTGTTGCGGCAGGGCACAGAG

// result
308
984
2980
2120
5000
1520

* * *

Biological target: ETS1 (UniProt P14921)
Sequence: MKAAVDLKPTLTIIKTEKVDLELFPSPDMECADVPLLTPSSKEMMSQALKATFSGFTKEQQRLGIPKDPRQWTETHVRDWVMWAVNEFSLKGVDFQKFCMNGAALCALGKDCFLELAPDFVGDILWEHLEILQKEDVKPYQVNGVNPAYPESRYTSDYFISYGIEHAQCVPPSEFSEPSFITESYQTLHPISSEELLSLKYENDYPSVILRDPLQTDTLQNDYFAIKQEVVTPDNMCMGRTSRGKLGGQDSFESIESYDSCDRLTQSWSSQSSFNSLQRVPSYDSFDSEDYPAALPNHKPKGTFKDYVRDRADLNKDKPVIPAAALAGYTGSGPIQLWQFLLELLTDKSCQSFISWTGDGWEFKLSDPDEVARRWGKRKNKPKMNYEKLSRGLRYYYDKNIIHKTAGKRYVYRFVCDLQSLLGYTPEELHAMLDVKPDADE
Experiment: ETS1 binding intensity (PBM fluorescence), ETS1 alone (arbitrary fluorescence units); higher = stronger binding
Conditions: ETS1 concentration 1 nM; RUNX1 concentration 0 nM
Recorded ETS1 binding intensity determines the group label, using A (below 600), B (600 to below 1000), C (1000 or more)

GAAGCAGACAGGAAGTGGGTCTGAGCGGTGGAGGGA : C
TTACCATCGCCCTTCCTGTGGGCTGGGAGGCCAGGT : A

// query Class (by measured ETS1 binding intensity) for `GACCCATTTCCTGGCTCAGGAGCCCACAGCCCTGGG`
// result A

// query # classify by ETS1 binding intensity band: `TGGCTTATCCTAACAGGAAGTGGTTTATCTGATCCT`
// result C

// query Form: Item = `GAGTTGCTTCCGGCCGTGTTGGTGGTCTGAATTGAG` ; Class = ?
// result C

// query Looking at `GTCGGAAGTGGCCGTGAGCCCAAGCCGCGGTCCCGG` , which class would you pick?
// result A

// query Band assignment needed for `TTTTCCCACTTCCTAGGTTGTGGTGGGGATTACACA` please.
// result A

// query Which ETS1 binding intensity category applies to `AGTGCAGAGTGGACAGGATGTGGTGGAGGTGAGAGA` here?
// result C
